molecular target: ΔF508-CFTR (Homo sapiens, UniProt P13569, DEL508-508); construct: expressed in transfected cells; assay: Membrane potential optical assay (FRET/VIPR), identification of correction compounds; type: cell-based; conditions: relative efficacy
Sequence (P13569 with tags, fused parts or gaps DEL508-508): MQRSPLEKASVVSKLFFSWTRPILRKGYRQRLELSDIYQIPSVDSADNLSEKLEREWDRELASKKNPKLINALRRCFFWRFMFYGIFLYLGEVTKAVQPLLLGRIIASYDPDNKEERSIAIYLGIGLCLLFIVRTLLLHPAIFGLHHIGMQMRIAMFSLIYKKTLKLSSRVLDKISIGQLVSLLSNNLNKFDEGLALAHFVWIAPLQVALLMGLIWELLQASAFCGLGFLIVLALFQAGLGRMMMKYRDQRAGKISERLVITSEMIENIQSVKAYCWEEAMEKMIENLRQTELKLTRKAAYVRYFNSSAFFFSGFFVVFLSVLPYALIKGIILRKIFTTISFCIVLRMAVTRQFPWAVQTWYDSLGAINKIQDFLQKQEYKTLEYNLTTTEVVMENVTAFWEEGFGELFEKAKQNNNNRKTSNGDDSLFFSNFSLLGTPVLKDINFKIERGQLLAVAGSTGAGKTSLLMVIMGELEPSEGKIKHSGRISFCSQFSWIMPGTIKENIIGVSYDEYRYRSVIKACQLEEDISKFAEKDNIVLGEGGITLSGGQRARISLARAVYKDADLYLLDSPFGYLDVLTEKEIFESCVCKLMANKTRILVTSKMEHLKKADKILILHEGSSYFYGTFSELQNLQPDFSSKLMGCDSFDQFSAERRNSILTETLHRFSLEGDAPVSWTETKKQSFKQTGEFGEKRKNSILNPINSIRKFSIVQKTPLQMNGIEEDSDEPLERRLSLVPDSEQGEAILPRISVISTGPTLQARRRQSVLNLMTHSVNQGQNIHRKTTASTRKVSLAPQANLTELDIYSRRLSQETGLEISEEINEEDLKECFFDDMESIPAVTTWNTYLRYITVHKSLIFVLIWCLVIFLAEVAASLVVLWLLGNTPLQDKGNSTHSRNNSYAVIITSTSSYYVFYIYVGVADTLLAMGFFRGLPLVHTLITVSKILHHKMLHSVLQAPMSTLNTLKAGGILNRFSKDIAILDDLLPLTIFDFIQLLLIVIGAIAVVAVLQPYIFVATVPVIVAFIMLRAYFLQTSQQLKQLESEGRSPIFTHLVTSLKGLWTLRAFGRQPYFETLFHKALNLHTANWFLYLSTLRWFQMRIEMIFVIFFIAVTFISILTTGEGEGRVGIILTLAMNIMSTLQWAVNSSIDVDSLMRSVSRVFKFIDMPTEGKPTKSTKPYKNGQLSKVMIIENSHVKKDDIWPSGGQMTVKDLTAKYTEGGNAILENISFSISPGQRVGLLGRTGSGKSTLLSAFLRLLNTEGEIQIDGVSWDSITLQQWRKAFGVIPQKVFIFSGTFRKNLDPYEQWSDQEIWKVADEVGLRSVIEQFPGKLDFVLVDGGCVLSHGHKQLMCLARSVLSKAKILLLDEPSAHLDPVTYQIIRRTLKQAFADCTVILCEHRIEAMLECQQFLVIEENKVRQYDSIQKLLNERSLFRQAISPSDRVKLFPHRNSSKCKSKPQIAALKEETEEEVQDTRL
# Emax annotations

- COMPOUND: "COC(=O)c1sccc1S(=O)(=O)N1CCN(C(C)c2nc3ccccc3c(=O)n2C)CC1 (stereo not shown)"
  Emax: "< 25%"
- COMPOUND: "CC(c1nc2ccccc2c(=O)n1C)N1CCN(S(=O)(=O)c2cccc(C#N)c2)CC1 (stereo not shown)"
  Emax: "< 25%"
- COMPOUND: "COc1ccc(S(=O)(=O)N2CCN(C(C)c3nc(OC(C)C)c4ccccc4n3)CC2)cc1 (stereo not shown)"
  Emax: "> 100%"
- COMPOUND: "COc1ccc(S(=O)(=O)N2CCN(C(C)c3nc(OC4CCOCC4)c4ccccc4n3)CC2)cc1 (stereo not shown)"
  Emax: "> 100%"
- COMPOUND: "COc1ccc(S(=O)(=O)N2CCN(C(C)c3nc4ccccc4c(=O)n3CC(C)(C)C)CC2)cc1 (stereo not shown)"
  Emax: "25 to 100%"
- COMPOUND: "CCCn1c(C(C)N2CCN(S(=O)(=O)c3ccc4ccccc4c3)CC2)nc2ccccc2c1=O (stereo not shown)"
  Emax: "25 to 100%"
- COMPOUND: "Cc1ccccc1C(=O)N1CCN(C(C)c2nc3ccccc3c(=O)n2C)CC1 (stereo not shown)"
  Emax: "< 25%"
- COMPOUND: "CC(c1nc(N(C)C)c2ccccc2n1)N1CCN(S(=O)(=O)c2ccc(Br)cc2)CC1 (stereo not shown)"
  Emax: "> 100%"
- COMPOUND: "CCOC(=O)c1cnc(C(C)N2CCN(S(=O)(=O)c3ccc(OC)cc3)CC2)nc1N1CCCCC1 (stereo not shown)"
  Emax: "25 to 100%"
- COMPOUND: "CC(c1nc2ccccc2c(=O)n1C)N1CCN(S(=O)(=O)c2ccc(Cl)s2)CC1 (stereo not shown)"
  Emax: "25 to 100%"
- COMPOUND: "CC(c1nc2ccccc2c(=O)n1C)N1CCN(S(=O)(=O)c2ccccc2Cl)CC1 (stereo not shown)"
  Emax: "25 to 100%"
- COMPOUND: "CCOC(=O)C1CCN(c2nc(C(C)N3CCN(S(=O)(=O)c4ccc(OC)cc4)CC3)nc3ccccc23)CC1 (stereo not shown)"
  Emax: "> 100%"
- COMPOUND: "CCC(c1nc(N2CCCCC2)c2ccccc2n1)N1CCN(S(=O)(=O)c2ccc(OC)cc2)CC1 (stereo not shown)"
  Emax: "> 100%"
- COMPOUND: "CC(c1nc2ccccc2c(=O)n1C)N1CCN(S(=O)(=O)c2ccc(Cl)cc2)CC1 (stereo not shown)"
  Emax: "> 100%"
- COMPOUND: "Cc1ccc(S(=O)(=O)N2CCN(C(C)c3nc4ccc(S(C)(=O)=O)cc4c(=O)n3C)CC2)cc1 (stereo not shown)"
  Emax: "25 to 100%"
- COMPOUND: "CC(NCCN(C)S(=O)(=O)c1ccc(Br)cc1)c1nc2ccccc2c(=O)n1C (stereo not shown)"
  Emax: "< 25%"
- COMPOUND: "COc1ccc(S(=O)(=O)N2CCN(C(C)c3nc(N4CCCCC4C)c4ccccc4n3)CC2)cc1 (stereo not shown)"
  Emax: "25 to 100%"
- COMPOUND: "CCn1c(C(C)N2CCN(S(=O)(=O)c3ccc(C)cc3)CC2)nc2ccc(Cl)cc2c1=O (stereo not shown)"
  Emax: "25 to 100%"
- COMPOUND: "CC(c1nc2ccc(Cl)cc2c(=O)n1C)N1CCN(S(=O)(=O)c2ccc(Br)cc2)CC1 (stereo not shown)"
  Emax: "25 to 100%"
- COMPOUND: "CC(NC1CCN(S(=O)(=O)c2ccc(Br)cc2)C1)c1nc2ccccc2c(=O)n1C (stereo not shown)"
  Emax: "25 to 100%"
- COMPOUND: "COc1ccc(S(=O)(=O)N2CCN(C(C)c3nc4cc(Cl)ccc4c(=O)n3C)CC2)cc1 (stereo not shown)"
  Emax: "25 to 100%"
- COMPOUND: "CC(c1nc2ccc(Br)cc2c(=O)n1C)N1CCN(S(=O)(=O)c2ccccc2)CC1 (stereo not shown)"
  Emax: "25 to 100%"
- COMPOUND: "CCCC(c1nc2ccccc2c(=O)[nH]1)N1CCN(S(=O)(=O)c2ccc(OC)cc2)CC1 (stereo not shown)"
  Emax: "25 to 100%"
- COMPOUND: "CC(=O)NCCn1c(C(C)N2CCN(S(=O)(=O)c3ccc(Cl)cc3)CC2)nc2ccccc2c1=O (stereo not shown)"
  Emax: "25 to 100%"
- COMPOUND: "CCNc1nc(C(C)N2CCN(S(=O)(=O)c3ccc(OC)cc3)CC2)nc2ccccc12 (stereo not shown)"
  Emax: "25 to 100%"
- COMPOUND: "COc1ccc(S(=O)(=O)N2CCN(C(C)c3ncc(C(=O)N(C)C)c(N4CCCCC4)n3)CC2)cc1 (stereo not shown)"
  Emax: "25 to 100%"
- COMPOUND: "Cc1ccc(S(=O)(=O)N2CCN(C(C)c3nc4ccc(Cl)cc4c(=O)n3C)CC2)cc1 (stereo not shown)"
  Emax: "< 25%"
- COMPOUND: "CCC(c1nc2ccccc2c(=O)[nH]1)N1CCN(S(=O)(=O)c2ccc(OC)cc2)CC1 (stereo not shown)"
  Emax: "25 to 100%"
- COMPOUND: "CC(c1nc2ccccc2c(=O)n1C)N1CCN(S(=O)(=O)c2cccc(F)c2)CC1 (stereo not shown)"
  Emax: "< 25%"
- COMPOUND: "Cc1ccc(NC(=O)N2CCN(C(C)c3nc4ccc(Cl)cc4c(=O)n3C)CC2)cc1 (stereo not shown)"
  Emax: "25 to 100%"
- COMPOUND: "CC(c1nc2ccc(Cl)cc2c(=O)n1C)N1CCN(S(=O)(=O)c2ccc(C(F)(F)F)cc2)CC1 (stereo not shown)"
  Emax: "25 to 100%"

---

# EC50 annotations
target: ΔF508-CFTR (Homo sapiens, UniProt P13569, DEL508-508); construct: expressed in transfected cells; assay: Membrane potential optical assay (FRET/VIPR), identification of correction compounds; type: cell-based
VALUE KIND: EC50

- COMPOUND: "CC(NCCNS(=O)(=O)c1ccc(Br)cc1)c1nc2ccccc2c(=O)n1C (centres unmarked)"
  RESULT: "25 to 60 µM"
- COMPOUND: "CCCn1c(C(C)N2CCN(C(=O)CSc3ccccc3)CC2)nc2ccccc2c1=O (centres unmarked)"
  RESULT: "25 to 60 µM"
- COMPOUND: "CC(c1nc2ccccc2c(=O)n1C)N1CCN(S(=O)(=O)Cc2ccccc2)CC1 (centres unmarked)"
  RESULT: "25 to 60 µM"
- COMPOUND: "CC(c1nc2ccccc2c(=O)n1C)N1CCN(S(=O)(=O)c2ccc(Br)s2)CC1 (centres unmarked)"
  RESULT: "10 to 25 µM"
- COMPOUND: "COc1ccc(S(=O)(=O)N2CCN(C(C)c3nc(N4CCSCC4)c4ccccc4n3)CC2)cc1 (centres unmarked)"
  RESULT: "< 10 µM"
- COMPOUND: "CC(NCCCNS(=O)(=O)c1ccc(Cl)cc1)c1nc2ccccc2c(=O)n1C (centres unmarked)"
  RESULT: "25 to 60 µM"
- COMPOUND: "COc1ccc(S(=O)(=O)N2CCN(C(C)c3nc4cccc(Cl)c4c(=O)n3C)CC2)cc1 (centres unmarked)"
  RESULT: "10 to 25 µM"
- COMPOUND: "CC(c1nc2ccccc2c(=O)n1C)N1CCN(S(=O)(=O)c2ccc(Oc3ccccc3)nc2)CC1 (centres unmarked)"
  RESULT: "25 to 60 µM"

---

biological target: ΔF508-CFTR (Homo sapiens, UniProt P13569, DEL508-508); construct: expressed in transfected cells; assay: Membrane potential optical assay (FRET/VIPR), identification of correction compounds; type: cell-based; details: relative efficacy

- COMPOUND: "CC(C)c1ccc(S(=O)(=O)N2CCN(C(C)c3nc4ccccc4c(=O)n3C)CC2)cc1 (centres unmarked)"
  Emax: "< 25%"
- COMPOUND: "CC(c1nc(N2CCOCC2)c2ccccc2n1)N1CCN(S(=O)(=O)c2ccc(Cl)cc2)CC1 (centres unmarked)"
  Emax: "25 to 100%"
- COMPOUND: "CCCC1CCN(c2nc(C(C)N3CCN(S(=O)(=O)c4ccc(OC)cc4)CC3)nc3ccccc23)CC1 (centres unmarked)"
  Emax: "> 100%"
- COMPOUND: "CCN(CC)c1nc(C(C)N2CCN(S(=O)(=O)c3ccc(Cl)cc3)CC2)nc2ccccc12 (centres unmarked)"
  Emax: "25 to 100%"
- COMPOUND: "CNc1nc(C(C)N2CCN(S(=O)(=O)c3ccc(OC)cc3)CC2)nc2ccccc12 (centres unmarked)"
  Emax: "25 to 100%"
- COMPOUND: "Cc1ccc(NC(=O)N2CCN(C(C)c3nc4ccccc4c(=O)n3C)CC2)cc1 (centres unmarked)"
  Emax: "< 25%"
- COMPOUND: "Cc1ccc(S(=O)(=O)N2CCN(C(C)c3nc4ccccc4c(=O)[nH]3)CC2)cc1 (centres unmarked)"
  Emax: "< 25%"
- COMPOUND: "COc1cc2nc(C(C)N3CCN(S(=O)(=O)c4ccc(C)cc4)CC3)n(C)c(=O)c2cc1OC (centres unmarked)"
  Emax: "25 to 100%"
